molecular target: Sialic acid-binding Ig-like lectin 9 (Homo sapiens) (UniProt Q9Y336); assay: Hs-Siglec9 ALPHAscreen SOP 20170721; set-up: scale not given: direction of the effect not stated beside the values; settings: 10 µM
Sequence (Q9Y336 whole entry): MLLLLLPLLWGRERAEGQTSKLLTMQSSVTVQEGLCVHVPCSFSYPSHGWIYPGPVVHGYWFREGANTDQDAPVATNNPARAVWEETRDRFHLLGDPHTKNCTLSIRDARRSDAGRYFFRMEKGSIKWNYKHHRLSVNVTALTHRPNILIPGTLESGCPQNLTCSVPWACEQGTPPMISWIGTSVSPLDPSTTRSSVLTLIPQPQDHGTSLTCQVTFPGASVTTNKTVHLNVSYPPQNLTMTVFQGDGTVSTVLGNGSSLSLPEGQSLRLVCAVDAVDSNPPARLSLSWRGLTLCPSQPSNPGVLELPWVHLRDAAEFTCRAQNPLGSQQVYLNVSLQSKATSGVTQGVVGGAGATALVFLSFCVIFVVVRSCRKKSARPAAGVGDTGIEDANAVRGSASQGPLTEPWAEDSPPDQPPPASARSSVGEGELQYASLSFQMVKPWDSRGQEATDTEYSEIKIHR
The following compounds are listed with their measured Percent Effect values.
Respond with the bare value in %.

Prompt: What does the data say about its Percent Effect? Entry: Cn1nc(CNC(=O)C2COc3ccccc3O2)cc1C1CC1 (stereo unspecified)
Completion: -1.75

Prompt: Requested read-out: Percent Effect. Entry: CCOCCN1CCn2c(C)nnc2C1
Completion: -1.98

Prompt: So what does the record say about Percent Effect for Cc1ccc(F)cc1C(=O)N1C[C@@H](CN2CCOCC2)[C@@H](CO)C1 ?
Completion: 5.12

Prompt: Would you kindly share the measured Percent Effect for O=C(NCc1nnc2n1CCC2)N(Cc1ccco1)C1CC1 ?
Completion: 3.8

Prompt: Return reported Percent Effect; argument: CC(C)C(=O)N1CCN(Cc2cc(-c3ccncc3)nn2C)CC1
Completion: 1.54

Prompt: Requested field: Percent Effect. Item: Cc1nc(C2(O)CCCNCC2)sc1CCOc1ccc(Cl)cc1 (stereo unspecified)
Completion: 1.33

Just for reference, ChEMBL document CHEMBL3988442 is where these values come from.
